// values below are reported TM2 (° C.)
# TEST_DETAILS: Differential scanning fluorimetry (protein thermal shift; TM1/TM2)
# Assay type: physicochemical
# TEST_CONTEXT: Table 11; melting temperature of the Fab domain
Just the number please, in °C, no unit attached.

- MOLECULE: "SRP2196-A09 (antibody, V domains shown) VH: EVQLVESGGGLVQPGGSLRLSCAASGFNITGYYIHWVRQAPGKGLEWVGQISPNSGATHYADSVKGRFTISADTSKNTAYLQMNSLRAEDTAVYYCARDSRRYIRSWDYWGQGTLVTVSS VL: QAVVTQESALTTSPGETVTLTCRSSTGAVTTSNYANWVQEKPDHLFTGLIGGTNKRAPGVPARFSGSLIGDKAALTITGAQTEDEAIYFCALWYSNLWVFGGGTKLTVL"
  TM2 (° C.) (°C): 75

Reported TM2 (° C.) ( SRP2196-B07 (antibody, V domains shown) VH: EVQLVESGGGLVQPGGSLRLSCAASGFNITGYHIHWVRQAPGEGLEWVGYISPNSGATYYADSVEGRFTISADTSKNTAYLQMHSLRAEDTAVYYCTRDSRRYVRGWDYWGQGTLVTVSS VL: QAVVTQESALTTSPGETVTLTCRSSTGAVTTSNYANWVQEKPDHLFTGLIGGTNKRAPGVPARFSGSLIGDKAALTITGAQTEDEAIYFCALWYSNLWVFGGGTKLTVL ) = 69
